test system: Caco-2; settings: human, Caco-2, 2 h;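 further: apparent permeability through Caco-2 cell membranes, with the permeated amount quantified by LC-MS/MS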
logPapp of -5 or higher: True. Under -5: False.

Hello, I need to know if CCCc1nc2c(C)cc(-c3nc4ccccc4n3C)cc2n1Cc1ccc(-c2ccccc2C(=O)O)cc1 has measured logPapp not below -5. Thanks!
True

Hello, I need to know if N[C@@H]1[C@H]2CN(c3nc4c(cc3F)c(=O)c(C(=O)O)cn4-c3ccc(F)cc3F)C[C@@H]12 [TROVAFLOXACIN] has measured logPapp not below -5. Thanks!
True

Hello, I need to know if Cc1ccc(/C(=C\CN2CCCC2)c2cccc(/C=C/C(=O)O)n2)cc1 [ACRIVASTINE] has measured logPapp not below -5. Thanks!
False

Hello, I need to know if CC(=O)[C@H]1CC[C@H]2[C@@H]3CCC4=CC(=O)CC[C@]4(C)[C@H]3CC[C@]12C [PROGESTERONE] has measured logPapp not below -5. Thanks!
True

Hello, I need to know if Cn1c(=O)c2[nH]cnc2n(C)c1=O.O [THEOPHYLLINE] has measured logPapp not below -5. Thanks!
True

Hello, I need to know if CC(C)NCC(O)COc1cccc2[nH]ccc12 (stereo not drawn) [PINDOLOL] has measured logPapp not below -5. Thanks!
True

Hello, I need to know if CC(C(=O)O)c1ccc2c(c1)Cc1cccnc1O2 (stereo not drawn) [PRANOPROFEN] has measured logPapp not below -5. Thanks!
True

Hello, I need to know if CNC(=C[N+](=O)[O-])NCCSCc1ccc(CN(C)C)o1 [RANITIDINE] has measured logPapp not below -5. Thanks!
False

Hello, I need to know if CNC(=NCCSCc1csc(N=C(N)N)n1)NC#N [TIOTIDINE] has measured logPapp not below -5. Thanks!
False

Hello, I need to know if NC(=O)N1c2ccccc2C=Cc2ccccc21 [CARBAMAZEPINE] has measured logPapp not below -5. Thanks!
False

Hello, I need to know if c1ccc(C2(N3CCCCC3)CCCCC2)cc1 [PHENCYCLIDINE] has measured logPapp not below -5. Thanks!
True

Hello, I need to know if CC(C(=O)O)c1ccc(C(=O)c2ccccc2)s1 (stereo not drawn) [TIAPROFENIC ACID] has measured logPapp not below -5. Thanks!
True

Hello, I need to know if CN/C(=N/CCSCc1nc[nH]c1C)NC#N [CIMETIDINE] has measured logPapp not below -5. Thanks!
False

Hello, I need to know if Clc1cccc(Cl)c1N=C1NCCN1 [CLONIDINE] has measured logPapp not below -5. Thanks!
True

Hello, I need to know if C[C@H](CCC(=O)NCCS(=O)(=O)O)[C@H]1CC[C@H]2[C@@H]3[C@H](O)C[C@@H]4C[C@H](O)CC[C@]4(C)[C@H]3C[C@H](O)[C@]12C [TAUROCHOLIC ACID] has measured logPapp not below -5. Thanks!
True

Hello, I need to know if C=CCOc1ccccc1OCC(O)CNC(C)C (stereo not drawn) [OXPRENOLOL] has measured logPapp not below -5. Thanks!
True

Hello, I need to know if CN1CCC[C@H]1c1cccnc1 [NICOTINE] has measured logPapp not below -5. Thanks!
True

Measured values drawn from ChEMBL document CHEMBL1764994 for this set.
